- Tested on: Mycobacterium tuberculosis FadD28 fatty-acid-AMP ligase
- assay: inhibitors of FadD28 bisubstrate probe binding, primary screen, biochemical, fluorescence polarization, single point (AID 588549)
- testContext: at 12.5 µM, stronger effect = higher value
Screen size: about 360,000 compounds; about 780 (0.22%) were called active. The full list was thinned out, with actives kept by preference.
Measured inhibition, listed per entry for reference.
assayMetric: inhibition (%)

>>> observedvalue("COc1cc(CNCc2ccc(OC)c3ccccc23)cc(OC)c1OC")
-0.377
>>> observedvalue("CCN(CC(=O)NCc1ccc(F)cc1)S(=O)(=O)c1ccc(Cl)s1")
-3.08
>>> observedvalue("Cc1nn(C)c(Cl)c1CN1CCC(n2nccc2NC(=O)C2CCCC2)CC1")
1.24
>>> observedvalue("COC(=O)c1ccc(CSc2nnc(NC(C)C)s2)cc1")
-3.65
>>> observedvalue("CS/C(=C\\[N+](=O)[O-])Nc1ccc(C)cc1")
2.23
>>> observedvalue("COCCCNC(NC(=O)c1ccc(OC)cc1)C(Cl)(Cl)Cl (stereo not given)")
-3.52
>>> observedvalue("Cc1ccc(S(=O)(=O)N2C[C@H]3C(=O)C[C@@H](c4cccc5ccccc45)N(S(=O)(=O)c4ccc(C)cc4)[C@H]3C[C@H]2c2ccc(Cl)cc2)cc1")
-2.51
>>> observedvalue("CC(C(=O)Nc1ccc(F)c(F)c1F)N1CCCCCC1 (stereo not given)")
-6.4
>>> observedvalue("CCC(=O)Nc1cccc(NC(=O)CSc2nnc(-c3ccc(NS(C)(=O)=O)cc3)n2C)c1")
1.19
>>> observedvalue("Cc1ccc(C(O)P(=O)(OC(C)C)c2ccc(N(C)C)cc2)cc1 (stereo not given)")
0.612

----------
Measured inhibition, listed per entry for reference.
- System: Mycobacterium tuberculosis FadD28 fatty-acid-AMP ligase
- assay: inhibitors of FadD28 bisubstrate probe binding, primary screen, biochemical, fluorescence polarization, single point (AID 588549)
- testContext: at 12.5 µM, stronger effect = higher value
Screen size: about 360,000 compounds; about 780 (0.22%) were called active. This is one part of a sample in which actives are shown more often than they occur.
assayMetric: inhibition (%)

>>> observedvalue("Cc1ccc(NC(=O)CN2C(=O)NC(C)(c3ccc(Cl)cc3)C2=O)c(Br)c1 (stereo not given)")
-1.17
>>> observedvalue("CC(=O)Nc1cccc(/C(C)=N/NC(=O)c2c(-c3ccccc3Cl)noc2C)c1")
-2.25
>>> observedvalue("COc1cccc(C(=O)N/N=C(\\C)c2cccc(NC(=O)c3ccc(F)cc3)c2)c1OC")
-4.93
>>> observedvalue("COC(=O)C1CCN(C(=O)c2ccc3oc(Cc4ccc(Cl)cc4)nc3c2)CC1")
-0.812
>>> observedvalue("N#Cc1ccc(C(=O)OCC(=O)NC(=O)NC2CCCCC2)cc1")
-1.55
>>> observedvalue("Cc1noc(C)c1-c1ccc(C(=O)NCc2ccncc2)c2occc12")
-2.15
>>> observedvalue("CN(C(=O)C1CCN(c2ncnc3c2nc2n3CCCCC2)CC1)C1CCCCC1")
-3.36
>>> observedvalue("O=C(O)c1ccccc1N=N/C(=N/Nc1cc(S(=O)(=O)O)ccc1O)c1ccccc1")
8.82
>>> observedvalue("Cc1nnc(Nc2ccccc2F)s1")
-1.11
>>> observedvalue("Cc1ccc(NC(=O)C(c2ccccc2)N2CCN(C(=O)c3ccco3)CC2)cc1 (stereo not given)")
-0.809

All figures here come from PubChem BioAssay AID588549.
